Inhibition by entry:
tested on: Plasmodium falciparum; assay: GSK_TCMDC: Inhibition of Plasmodium falciparum Dd2 in whole red blood cells, using parasite LDH activity as an index of growth. Test compounds present at 2uM; type: functional
Numbers only; they are read as %.

Which measured Inhibition value corresponds to O=C(O)C(F)(F)F.Oc1ccc(CCNc2nc(NCc3ccccc3Oc3ccc(C(F)(F)F)cc3)nc(N3CCNCC3)n2)cc1 ?
2

Follow-up item: CCC(COCc1ccc(Cl)cc1)N(C)CCN(C)C(CC)COCc1ccc(Cl)cc1.Cl (centres undefined)
78

Next compound up: O=C(COc1ccc(Cl)c(Cl)c1)NCCCCCN1CCCN(C(=O)Nc2cc(Cl)cc(Cl)c2)CC1.O=C(O)C(F)(F)F
1

Try this compound next: CCOc1ccccc1C=CC(=O)Nc1ccc2nc(N3CCN(C)CC3)cc(C)c2c1
91

Likewise for Cc1cc(N[C@@H](Cc2ccccc2)C(=O)NCc2cccc(F)c2)nc(Nc2ccccc2)n1.O=C(O)C(F)(F)F ?
92

###

tested on: Plasmodium falciparum; assay: GSK_TCMDC: Inhibition of Plasmodium falciparum Dd2 in whole red blood cells, using parasite LDH activity as an index of growth. Test compounds present at 2uM; assay type: functional
Recorded Inhibition for the following molecules
Respond numerically; units are % and should not be typed.

Known results for molecules:
MOLECULE	UNIT_TAG	Inhibition
Cc1nc(N)nc(N)c1CCCOc1ccccc1Cl	%	5
O=C(NCCN1CCCC1)c1ccc(-c2ccc(-c3nc4ccccc4[nH]3)s2)cc1	%	3
CO/C(=C\C=C\c1cc2cc(Cl)c(Cl)cc2[nH]1)C(=O)NC1CC2CCCC(C1)N2C (stereo not given)	%	51
Cc1cccc(C)c1CNc1ccnc2cc(Br)ccc12.Cl	%	99
CCCCCc1cnc2nc(N)nc(N)c2c1C.Cl	%	23

Then there is this molecule:
Quick one: Inhibition for Nc1nc2c(ncn2OC[C@H]2COP(=O)([O-])CO2)c(=O)[nH]1.[Na+] ?
32

###

test system: Plasmodium falciparum; assay: GSK_TCMDC: Inhibition of Plasmodium falciparum 3D7 in whole red blood cells, using parasite LDH activity as an index of growth. Test compounds present at 2uM; assay type: functional
ASSAY_METRIC: Inhibition (%)
Give the value, in units of %, as a plain number.

Illustrative cases are given below, each with its answer.
COMPOUND	UNIT_TAG	TEST_VALUE
O=[N+]([O-])c1ccc2c(-c3ccccc3)c(-c3ccccc3)n(O)c2c1	%	97
Clc1ccc2c(NN=Cc3cccnc3)ccnc2c1	%	100
CCCCCCC(C)c1cc(O)c2c(c1)OC(=O)CC2(CC)c1ccccn1.Cl (centres undefined)	%	100
O=C(CN1CCCCC1)Nc1ccc(Nc2nccc(NCC(O)c3ccccc3)n2)cc1 (centres undefined)	%	100
CCCN(Cc1nnc(-c2cccs2)o1)C(=O)CSc1nnnn1-c1cc(C)cc(C)c1	%	92
FC(F)(F)c1ccc2c(C=Cc3ccncc3)c[nH]c2c1	%	98
CCOC(=O)CNC(=O)N1CCN(C(=O)NCC(=O)OCC)CC1	%	93
CCOC(=O)c1cnc2c(OC)cc(OC)c(Cl)c2c1Nc1cccc(C)c1	%	95

Bench note: what Inhibition did O=C(/C=C/c1ccc(Cl)c(Cl)c1)NCCCCCCN1CCCN(C(=O)Nc2cccc(Cl)c2)CC1 show?
94

What about O=C(CCC1CCCCC1)NCCNc1cccc2ccccc12 ?
90

# iterate: CCC(C)CN1CCN(c2cc(NC(=O)c3cccs3)ccn2)C(C)C1.O=C(O)C(F)(F)F (centres undefined)
88

Next record, please: Cc1cccc(-c2cccc(CNc3nc(NCCc4ccc(O)cc4)nc(N4CCNCC4)n3)c2)c1.O=C(O)C(F)(F)F
84

Try this compound next: Cc1cc(N2CCCCC2)nc2ccc(NC(=O)c3cccc([N+](=O)[O-])c3)cc12
95

Further, for COc1nc2c(CCN3CCC(NCc4ccc5c(n4)NC(=O)CO5)CC3)c(Cl)cnc2cc1F.Cl ?
99

Each recorded value in this set is attributed to ChEMBL document CHEMBL1157539.
